For each entry below, report its pKd value.
- Tested system: T1, integrin αvβ3, purified from human placenta (human, UniProt P06756 31-1048; P05106 27-788)
- T1 construct: mature; Native heterodimer, immobilized on ELISA plates or on the BIAcore chip; biotinylated in capture lift and capture ELISA screens; also called αvβ3 receptor; vitronectin receptor
- T1 sequence (P06756 31-1048, form in doubt, chain 1 of 2): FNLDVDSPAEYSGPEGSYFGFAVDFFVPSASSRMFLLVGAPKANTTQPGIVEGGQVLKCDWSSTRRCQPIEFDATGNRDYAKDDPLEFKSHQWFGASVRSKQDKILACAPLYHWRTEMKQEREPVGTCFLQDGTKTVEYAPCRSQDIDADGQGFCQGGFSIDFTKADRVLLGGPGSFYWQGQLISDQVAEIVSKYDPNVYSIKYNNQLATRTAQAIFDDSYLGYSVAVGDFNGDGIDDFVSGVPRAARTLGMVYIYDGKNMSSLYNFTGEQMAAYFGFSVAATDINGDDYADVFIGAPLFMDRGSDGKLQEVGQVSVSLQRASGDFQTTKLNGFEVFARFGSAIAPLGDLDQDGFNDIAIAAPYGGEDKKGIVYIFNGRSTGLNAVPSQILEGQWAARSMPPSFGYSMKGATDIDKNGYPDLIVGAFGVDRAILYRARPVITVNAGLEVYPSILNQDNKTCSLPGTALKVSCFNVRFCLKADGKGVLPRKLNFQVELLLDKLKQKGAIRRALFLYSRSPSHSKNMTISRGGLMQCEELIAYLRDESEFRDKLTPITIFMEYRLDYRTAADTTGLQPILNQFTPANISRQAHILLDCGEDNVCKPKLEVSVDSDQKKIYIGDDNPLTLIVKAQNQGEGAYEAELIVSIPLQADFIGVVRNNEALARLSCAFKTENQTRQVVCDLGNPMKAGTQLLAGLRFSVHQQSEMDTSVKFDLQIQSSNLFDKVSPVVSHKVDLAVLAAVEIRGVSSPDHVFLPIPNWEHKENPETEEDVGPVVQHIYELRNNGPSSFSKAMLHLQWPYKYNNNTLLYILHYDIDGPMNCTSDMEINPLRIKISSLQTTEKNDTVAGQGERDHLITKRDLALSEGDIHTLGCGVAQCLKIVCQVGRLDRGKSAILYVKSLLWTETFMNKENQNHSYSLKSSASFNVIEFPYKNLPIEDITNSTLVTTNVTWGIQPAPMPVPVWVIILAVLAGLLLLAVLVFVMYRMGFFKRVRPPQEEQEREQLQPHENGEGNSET
- T1 sequence (P05106 27-788, form in doubt, chain 2 of 2): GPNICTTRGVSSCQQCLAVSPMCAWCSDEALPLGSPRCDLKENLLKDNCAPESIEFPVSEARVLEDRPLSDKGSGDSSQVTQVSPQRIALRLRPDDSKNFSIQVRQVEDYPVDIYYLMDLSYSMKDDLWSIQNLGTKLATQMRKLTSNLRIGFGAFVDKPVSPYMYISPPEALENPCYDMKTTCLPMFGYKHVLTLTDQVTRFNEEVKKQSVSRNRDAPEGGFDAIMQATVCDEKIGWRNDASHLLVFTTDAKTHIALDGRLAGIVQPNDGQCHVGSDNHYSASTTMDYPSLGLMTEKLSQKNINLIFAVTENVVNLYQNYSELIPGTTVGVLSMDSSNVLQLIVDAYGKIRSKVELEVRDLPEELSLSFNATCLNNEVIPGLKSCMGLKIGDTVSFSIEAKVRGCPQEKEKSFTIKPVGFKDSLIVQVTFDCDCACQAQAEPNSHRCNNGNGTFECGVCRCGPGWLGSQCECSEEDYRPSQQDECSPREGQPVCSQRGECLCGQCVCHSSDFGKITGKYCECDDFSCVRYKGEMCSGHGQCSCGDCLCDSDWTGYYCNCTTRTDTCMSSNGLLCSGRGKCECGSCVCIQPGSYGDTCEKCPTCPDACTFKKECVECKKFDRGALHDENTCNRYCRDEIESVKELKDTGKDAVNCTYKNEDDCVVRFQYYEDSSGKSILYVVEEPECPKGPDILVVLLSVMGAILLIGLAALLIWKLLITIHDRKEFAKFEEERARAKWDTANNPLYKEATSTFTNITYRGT
- Assay method text: SPR (BIAcore), purified Fab over immobilized αvβ3
A value of pKd is the negative decimal logarithm of a concentration given in moles per litre.

Quick check: pKd of LM609 grafted antibody combinatorial clone 6G1 (Fab, V domains shown, Fab) VH: QVQLVESGGGVVQPGRSLRLSCAASGFTFSSYDMSWVRQAPGKGLEWVAKVSSGGGSTYYPDTVQGRFTISRDNSKNTLYLQMNSLRAEDTAVYYCARHNYGSFASWGQGTTVTVSS VL: EIVLTQSPATLSLSPGERATLSCQASQSISNHLHWYQQRPGQAPRLLIRYRSQSISGIPARFSGSGSGTDFTLTISSLEPEDFAVYYCQQSGSWPLTFGGGTKVEIK ?
9.15

May I ask what pKd has been recorded for LM609 grafted antibody combinatorial clone 8F9 (Fab, V domains shown, Fab) VH: QVQLVESGGGVVQPGRSLRLSCAASGFTFSSYDMSWVRQAPGKGLEWVAKVSSGGGSTYYPDTVQGRFTISRDNSKNTLYLQMNSLRAEDTAVYYCARHNHGSFASWGQGTTVTVSS VL: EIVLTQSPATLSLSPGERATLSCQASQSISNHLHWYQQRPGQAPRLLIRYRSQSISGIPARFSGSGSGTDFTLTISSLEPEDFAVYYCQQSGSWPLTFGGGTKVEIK ?
9.22

Need pKd, item LM609 grafted antibody combinatorial clone 6H6 (Fab, V domains shown, Fab) VH: QVQLVESGGGVVQPGRSLRLSCAASGFTFSSYDMSWVRQAPGKGLEWVAKVSSGGGSTYYLDTVQGRFTISRDNSKNTLYLQMNSLRAEDTAVYYCARHNHGSFASWGQGTTVTVSS VL: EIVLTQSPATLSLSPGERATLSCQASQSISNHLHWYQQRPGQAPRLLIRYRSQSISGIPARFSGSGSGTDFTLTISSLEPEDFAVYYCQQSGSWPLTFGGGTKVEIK
9.40

The reported numbers originate from patent US20060204492A1.
